Target: UniProt:P17948
Assay: Inhibition of FLT-1 kinase activity (33P-ATP, poly-(Glu4Tyr) phosphocellulose filter assay)
Format: biochemical
observable: IC50 (nM)
Record the value in nM, omitting the unit from your answer.

Measured IC50, CCCc1ccc(NC(=O)c2ccccc2CCc2ccncc2)cc1 [Example 1.1] : 200

###

So I've got a bunch of molecules here, and I need their pIC50 values.
Target: VEGFR I (FLT) (Homo sapiens, UniProt P17948)
Sequence (P17948 27-1338, species assumed): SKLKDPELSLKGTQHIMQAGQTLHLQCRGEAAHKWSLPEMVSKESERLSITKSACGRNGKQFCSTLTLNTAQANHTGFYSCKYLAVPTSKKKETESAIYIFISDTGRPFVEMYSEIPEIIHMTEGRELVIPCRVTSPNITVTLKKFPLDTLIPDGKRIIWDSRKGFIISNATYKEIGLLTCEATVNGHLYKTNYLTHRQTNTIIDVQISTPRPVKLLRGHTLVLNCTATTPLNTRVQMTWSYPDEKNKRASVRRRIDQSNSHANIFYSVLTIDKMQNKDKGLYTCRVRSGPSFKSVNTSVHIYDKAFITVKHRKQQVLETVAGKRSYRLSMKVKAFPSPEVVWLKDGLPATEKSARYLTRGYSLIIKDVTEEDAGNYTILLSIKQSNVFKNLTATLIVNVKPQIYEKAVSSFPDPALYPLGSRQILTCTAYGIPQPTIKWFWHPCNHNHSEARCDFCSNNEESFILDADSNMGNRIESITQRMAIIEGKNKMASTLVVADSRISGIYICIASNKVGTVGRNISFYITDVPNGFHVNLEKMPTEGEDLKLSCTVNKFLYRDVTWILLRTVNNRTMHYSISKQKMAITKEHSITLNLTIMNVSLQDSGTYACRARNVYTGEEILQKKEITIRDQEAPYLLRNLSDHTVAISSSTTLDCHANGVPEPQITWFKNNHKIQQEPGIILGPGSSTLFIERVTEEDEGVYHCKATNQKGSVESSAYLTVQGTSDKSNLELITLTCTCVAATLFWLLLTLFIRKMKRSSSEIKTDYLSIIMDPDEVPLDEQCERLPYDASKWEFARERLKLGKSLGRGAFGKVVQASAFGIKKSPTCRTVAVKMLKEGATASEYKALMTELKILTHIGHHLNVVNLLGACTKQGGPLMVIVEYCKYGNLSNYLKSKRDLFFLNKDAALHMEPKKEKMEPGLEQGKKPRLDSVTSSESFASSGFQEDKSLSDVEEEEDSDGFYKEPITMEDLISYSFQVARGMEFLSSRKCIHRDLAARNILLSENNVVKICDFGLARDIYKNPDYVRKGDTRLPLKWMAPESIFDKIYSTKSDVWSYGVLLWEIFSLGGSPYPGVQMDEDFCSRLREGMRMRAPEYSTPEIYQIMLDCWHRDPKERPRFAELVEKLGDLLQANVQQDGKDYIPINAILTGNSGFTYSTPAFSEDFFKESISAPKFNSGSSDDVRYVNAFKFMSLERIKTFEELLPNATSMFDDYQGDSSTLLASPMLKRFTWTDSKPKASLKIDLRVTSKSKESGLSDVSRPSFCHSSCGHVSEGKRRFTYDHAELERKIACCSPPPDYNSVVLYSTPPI
Test: Inhibition of FLT-1 kinase activity (33P-ATP, poly-(Glu4Tyr) phosphocellulose filter assay)
Format: biochemical
Settings: FLT-1 kinase, poly-(Glu4Tyr) substrate, 10 minutes at room temperature; read-out: kinase inhibition IC50 VEGFR I (FLT)
pIC50 (log units): -log10 of the concentration in mol/L.

Measured pIC50, COc1ccc(/C=C\c2ccccc2C(=O)Nc2ccc(Cl)cc2)cc1 : 6.70

Measured pIC50, COc1ccc(CCc2ccccc2C(=O)Nc2cnc3ccccc3c2)cc1 : 5.70

Measured pIC50, O=C(Nc1ccc(Cl)cc1)c1cccc(C#Cc2cccnc2)c1 : 7.30

Measured pIC50, CCCCCCCNC(=O)c1ccccc1/C=C\c1ccc(OC)cc1 : 6.70

Measured pIC50, COc1ccc(/C=C\c2ccccc2C(=O)Nc2cnc3ccccc3c2)cc1 : 5.70

Measured pIC50, O=C(NCC1CCCCC1)c1ccccc1CCc1ccncc1 : 6.70
